- System: dTAG-HA SLCs
- protocol details: dTAG-driven SLC degradation, statements across SLCs (temporal control, chemical rescue)
- Assay type: cell-based, human
- particulars: HAP1; 0.5 µM dTAG7 12 or 18 hours; MLN4924 1 µM, pomalidomide 10 µM, bortezomib 1 µM, MG-132 1 µM, bafilomycin A1 2.5 µM
Residues, ends and D or L forms follow the SMILES beside them. *: point of attachment. Cbz = O=C(OCc1ccccc1)*
measurement label: effect of co-treatment on dTAG7 mediated SLC degradation (chemical rescue)

# molecule, result
rows = [
    ("CC(C)C[C@@H](C=O)NC(=O)[C@H](CC(C)C)NC(=O)[C@H](CC(C)C)NC(=O)OCc1ccccc1 [MG132] (Cbz-Leu-Leu-Leu-aldehyde)", "rescued SLCs degradation"),
    ("CC(C)C[C@H](NC(=O)[C@H](Cc1ccccc1)NC(=O)c1cnccn1)B(O)O", "rescued SLCs degradation"),
]
